Biological target: T1, human serum albumin (human, UniProt P02768 25-609)
T1 construct: Negative control of the ELISA; also called HSA
T1 sequence (P02768 25-609 limits assumed): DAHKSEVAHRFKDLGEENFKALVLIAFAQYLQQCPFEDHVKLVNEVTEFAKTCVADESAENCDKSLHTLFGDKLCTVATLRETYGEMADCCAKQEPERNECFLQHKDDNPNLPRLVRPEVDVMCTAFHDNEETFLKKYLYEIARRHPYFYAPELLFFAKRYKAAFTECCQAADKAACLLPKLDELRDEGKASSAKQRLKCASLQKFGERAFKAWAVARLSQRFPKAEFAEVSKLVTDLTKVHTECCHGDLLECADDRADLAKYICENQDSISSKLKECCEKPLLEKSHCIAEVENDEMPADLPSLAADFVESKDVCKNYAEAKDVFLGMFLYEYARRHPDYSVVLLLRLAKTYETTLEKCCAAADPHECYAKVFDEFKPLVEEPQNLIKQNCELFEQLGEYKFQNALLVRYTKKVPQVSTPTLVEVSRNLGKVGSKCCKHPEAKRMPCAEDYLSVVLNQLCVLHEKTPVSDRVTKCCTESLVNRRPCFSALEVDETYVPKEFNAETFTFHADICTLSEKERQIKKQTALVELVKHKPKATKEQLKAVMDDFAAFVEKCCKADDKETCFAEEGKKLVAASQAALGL
Assay: ELISA, negative control HSA
Quick list: ELISA HSA (RLU) per entry.

Binder: ISOP193ER9P1C10 (designed binder, not shown: small tags and cut ends) LLAPKNLVVSRVTEDSARLSWIAPDAAFDSFEIYYKELRAEGEAIVLTVPGSERSYDLTGLKPGTEYLVTIYGVKGGSVSIPLSAIFTT
ELISA HSA (RLU): 560
--
Binder: ISOP193ER9P1A11 (designed binder, not shown: small tags and cut ends) LPAPKNLVVSRVTEDSARLSWTAPDAAFDSFAIQYQEYVAHGEAIVLTVPGSERSYDLTGLKPGTEYHVRISGVKGGGVSWPLSAIFTT
ELISA HSA (RLU): 640
--
Binder: ISOP193FR9P1G2 (designed binder, not shown: small tags and cut ends) LPAPKNLVVSRVTEDSARLSWTAPDAAFDSFTIYYFENENGGEAIVLTVPGSERSYDLTGLKPDTEYLVTIYGVKGGHWSRPLSAIFTT
ELISA HSA (RLU): 880
--
Binder: ISOP193ER9P1A8 (designed binder, not shown: small tags and cut ends) LPAPKNLVVSRVTEDSARLSWTAPDAAFDSLDIYYFEHPVGGEAIVLTVPGSERSYDLTGLKPGTEYLVTIYGVKGGYLSMPLSAIFTT
ELISA HSA (RLU): 400
--
Binder: ISOP193HR9P1G4 (designed binder, not shown: small tags and cut ends) LPAPKNLVVSRVTEDSARLSWTAPDAAFDSFEIYYFELRLGGEAIVLTVPGSERSYDLTGLKPGTEYLVTIYGVKGGDYSPPLSAIFTT
ELISA HSA (RLU): 560

// provenance: patent US20220259289A1
